# measurement.protocol: Inhibition of sheep brain tubulin polymerization in presence of GTP by DAPI based fluorimetric method
# Design: species or system Ovis aries
# run.parameters: read-out: IC50
pIC50: −log10 of the molar value.

{"columns": ["molecule", "pIC50"],
 "data": [
  ["Cc1nc(N(C)c2ccc3c(c2)c2ccccc2n3C)c2ccccc2n1", 5.42],
  ["CN(c1ccc2c(ccn2C)c1)c1cc(C(F)(F)F)nc2ccccc12", 5.60],
  ["Cc1cc(N(C)c2ccc3c(c2)c2cc(N)ccc2n3C)c2ccccc2n1", 5.56],
  ["Cc1cc(N(C)c2ccc3c(c2)c2ccccc2n3C)c2ccccc2n1", 5.95],
  ["Cc1cc(N(C)c2ccc3c(c2)c2ccccc2n3C)c2cc(N)ccc2n1", 5.24],
  ["COc1cccc2c(N(C)c3ccc4c(c3)c3ccccc3n4C)cc(C)nc12", 5.83],
  ["Cc1cc(N(C)c2ccc3c(ccn3C)c2)c2ccccc2n1", 5.87],
  ["COc1ccc(N(C)c2cc(C)nc3ccccc23)nc1N", 6.05],
  ["CN(c1ccc2c(c1)c1ccccc1n2C)c1nc(Cl)nc2ccccc12", 5.50],
  ["Cc1cc(N(C)c2ccc3c(c2)OCCO3)c2ccccc2n1", 5.39],
  ["CN(c1ccc2c(ccn2C)c1)c1nc(Cl)nc2ccccc12", 5.92],
  ["CN(c1ccc2c(c1)c1ccccc1n2C)c1cc(C#N)nc2ccccc12", 5.85],
  ["C=C(c1ccc(OC)c(O)c1)c1cc(OC)c(OC)c(OC)c1", 6.00],
  ["CN(c1ccc2c(c1)c1ccccc1n2C)c1cc(Cl)nc2ccccc12", 5.94],
  ["Cc1cc(N(C)c2ccc3c(c2)c2ccccc2n3C)c2cccc(O)c2n1", 5.91]
]}

====

IC50 values for the molecules below.
# Test system: MIA PaCa-2
# measurement.protocol: Cytotoxicity against human MIAPaCa2 cells assessed as reduction in cell growth measured after 72 hrs by MTS assay
# Format: functional, cell-based
# run.parameters: MIA PaCa-2, 72 h

{"columns": ["molecule", "measurement.unit", "IC50"],
 "data": [
  ["CN(c1ccc2c(ccn2C)c1)c1nc(Cl)nc2ccccc12", "nM", 0.62],
  ["Cc1cc(N(C)c2ccc3c(c2)c2ccccc2n3C)c2ccccc2n1", "nM", 0.47],
  ["C=C(c1ccc(OC)c(O)c1)c1cc(OC)c(OC)c(OC)c1", "nM", 5]
]}

====

# Tested on: A2780
# measurement.protocol: Cytotoxicity against human A2780 cells assessed as reduction in cell growth measured after 72 hrs by MTS assay
# Format: functional, cell-based
# run.parameters: A2780, 72 h

{"columns": ["molecule", "IC50, nM"],
 "data": [
  ["CN(c1ccc2c(ccn2C)c1)c1nc(Cl)nc2ccccc12", 0.24],
  ["Cc1cc(N(C)c2ccc3c(c2)c2ccccc2n3C)c2ccccc2n1", 0.53],
  ["C=C(c1ccc(OC)c(O)c1)c1cc(OC)c(OC)c(OC)c1", 3.01]
]}

====

# measurement.protocol: Antiproliferative activity against HUVEC assessed as growth inhibition after 72 hrs
# Assay type: cell-based
# run.parameters: human, HUVEC cells

{"columns": ["molecule", "measurement.unit", "GI50 at 72 h"],
 "data": [
  ["Cc1cc(N(C)c2ccc3c(c2)c2ccccc2n3C)c2ccccc2n1", "nM", 3.23]
]}
